# Tested target: HCN4 (Homo sapiens (Human))
# Sequence (Q9Y3Q4 whole entry, species assumed): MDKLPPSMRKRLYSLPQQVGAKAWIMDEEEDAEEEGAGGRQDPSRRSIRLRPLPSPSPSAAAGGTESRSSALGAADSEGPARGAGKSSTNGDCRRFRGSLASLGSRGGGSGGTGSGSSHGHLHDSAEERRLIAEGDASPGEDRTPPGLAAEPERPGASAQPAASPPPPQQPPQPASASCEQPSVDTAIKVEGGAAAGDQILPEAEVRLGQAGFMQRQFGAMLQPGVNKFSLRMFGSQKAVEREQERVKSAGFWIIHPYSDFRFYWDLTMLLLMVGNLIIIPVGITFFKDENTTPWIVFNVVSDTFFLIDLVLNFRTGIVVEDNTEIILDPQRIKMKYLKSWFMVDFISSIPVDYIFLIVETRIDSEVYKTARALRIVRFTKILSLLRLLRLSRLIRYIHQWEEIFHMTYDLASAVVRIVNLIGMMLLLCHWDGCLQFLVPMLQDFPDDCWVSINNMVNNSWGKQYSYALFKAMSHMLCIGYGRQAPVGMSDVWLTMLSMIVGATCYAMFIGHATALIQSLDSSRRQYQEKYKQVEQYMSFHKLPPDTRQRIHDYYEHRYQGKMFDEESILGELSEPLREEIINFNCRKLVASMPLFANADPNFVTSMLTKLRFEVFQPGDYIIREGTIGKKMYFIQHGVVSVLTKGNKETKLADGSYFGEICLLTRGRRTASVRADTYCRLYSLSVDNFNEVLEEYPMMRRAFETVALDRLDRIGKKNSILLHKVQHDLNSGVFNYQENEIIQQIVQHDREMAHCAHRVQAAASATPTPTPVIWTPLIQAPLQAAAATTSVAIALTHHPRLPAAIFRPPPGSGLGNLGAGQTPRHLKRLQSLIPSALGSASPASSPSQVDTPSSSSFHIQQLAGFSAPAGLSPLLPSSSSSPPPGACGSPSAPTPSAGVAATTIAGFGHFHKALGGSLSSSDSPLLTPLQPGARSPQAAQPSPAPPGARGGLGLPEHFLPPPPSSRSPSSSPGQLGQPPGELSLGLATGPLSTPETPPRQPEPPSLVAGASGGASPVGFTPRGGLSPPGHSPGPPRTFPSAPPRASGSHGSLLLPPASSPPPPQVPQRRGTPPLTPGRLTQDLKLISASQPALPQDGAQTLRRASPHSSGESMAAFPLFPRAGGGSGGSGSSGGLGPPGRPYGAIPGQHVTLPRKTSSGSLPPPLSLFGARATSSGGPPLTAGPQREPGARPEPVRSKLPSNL
# Test name: HCN4 current assay using PatchXpress 7000A
# Assay type: cell-based
# Test conditions: PatchXpress protocol; read-out: PX HCN4 IC50
Counter-ions that a name gives are not always drawn.
Metric name: IC50

Answered examples (2):
[
  {
    "Compound": "Cc1cccc(C[C@H](N)c2ccccc2-c2nn(C(C)C)c3ccccc23)n1 [Example 66, hydrochloride]",
    "Tested target": "HCN4 (Homo sapiens (Human))",
    "Observed measurement": "6.8 µM"
  },
  {
    "Compound": "COC(=O)Nc1cccc(C[C@H](N)c2ccccc2-c2noc3ccccc23)n1 [Example 124, hydrochloride]",
    "Tested target": "HCN4 (Homo sapiens (Human))",
    "Observed measurement": "> 30 µM"
  }
]

Below: the item to evaluate.
# input Under HCN4 (Homo sapiens (Human)): IC50 value of CC[C@@H](c1ccccn1)[C@H](N)c1ccccc1-c1noc2ccccc12 [Example 46, hydrochloride] ?
# output > 30 µM
